Listed next: entries and their corresponding EC50 (read off the curve).
Tested on: T1, Human IL13Rα2 (human, UniProt Q14627 27-343, limits assumed)
T1 construct: also called human recombinant IL13Rα2; Human IL13Ra2
T1 sequence (looked up): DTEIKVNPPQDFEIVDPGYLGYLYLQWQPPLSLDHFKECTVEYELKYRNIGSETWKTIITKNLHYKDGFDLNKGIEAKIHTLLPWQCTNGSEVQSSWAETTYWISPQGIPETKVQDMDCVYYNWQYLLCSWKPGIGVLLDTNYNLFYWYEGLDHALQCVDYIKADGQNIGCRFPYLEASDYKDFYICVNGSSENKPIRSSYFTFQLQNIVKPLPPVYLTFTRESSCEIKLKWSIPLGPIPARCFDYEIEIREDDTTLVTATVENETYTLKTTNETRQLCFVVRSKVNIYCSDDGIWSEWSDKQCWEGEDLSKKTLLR
Experiment notes: plate ELISA on human recombinant IL13Rα2, OD405, N=4

Binder	EC50 (read off the curve)
Ab Vh1-VL1W100F (antibody, human IgG1, kappa, V domains shown, also called single mutant W100F) VH: QVQLVQSGAEVKKPGSSVKVSCKASGYTFSNYLMNWVRQAPGQGLEWMGRIDPYDGDIDYNQNFKDRVTITADKSTSTAYMELSSLRSEDTAVYYCARGYGTAYGVDYWGQGTLVTVSS VL: DIVMTQSPDSLAVSLGERATINCRASESVDNYGISFMNWYQQKPGQPPKLLIYAASRQGSGVPDRFSGSGSGTDFTLTISSLQAEDVAVYYCQQSKEVPFTFGGGTKLEIKR	~0.03 µg/mL

Now, please, on to the next binder.
Asked: I would be grateful if you could share the reported EC50 (read off the curve) for Humanized antibody VH1 + VL1 (antibody, human IgG1, kappa, V domains shown, also called Humanized VH1-VL1; U3621EI120 VH1+VL1) VH: QVQLVQSGAEVKKPGSSVKVSCKASGYTFSNYLMNWVRQAPGQGLEWMGRIDPYDGDIDYNQNFKDRVTITADKSTSTAYMELSSLRSEDTAVYYCARGYGTAYGVDYWGQGTLVTVSS VL: DIVMTQSPDSLAVSLGERATINCRASESVDNYGISFMNWYQQKPGQPPKLLIYAASRQGSGVPDRFSGSGSGTDFTLTISSLQAEDVAVYYCQQSKEVPWTFGGGTKLEIKR .
Given back: ~0.02 µg/mL
